Origin of values: PubChem BioAssay (NCI)

# Tested on: SW-620 colon
# assayName: NCI tumour cell line growth inhibition, 48 h
The following compounds are shown together with reported TGI values.

Briefly, TGI measured for `CCOC(=O)C(=O)Nc1nc2c(s1)C(=O)c1ccccc1C2=O` : 27.7 µM

Briefly, TGI measured for NCCC(N)C(=O)O (stereo not given) : > 100 µM

Briefly, TGI measured for `Nc1nc(SCc2ccccn2)c2ncn(C3CCCC3)c2n1` : > 100 µM

Briefly, TGI measured for CCCC/C=C1\CCC(CN2CCCCC2)C1=O (stereo not given) : 14.4 µM

Briefly, TGI measured for `Cc1cc2c(cc1Cl)Sc1nnc(Nc3ccccc3)n1S2(=O)=O` : > 100 µM

Briefly, TGI measured for CC(C)(C)OC(=O)n1cc(C2CNC(=O)C23CCC(=O)N3Cc2ccccc2)c2ccccc21 (stereo not given) : > 100 µM

Briefly, TGI measured for `COc1cc([C@H]2c3cc4c(cc3O[C@@]3(O)COC(=O)[C@@H]23)OCO4)cc(OC)c1OC` : > 100 µM

Briefly, TGI measured for `COc1cc2c(cc1OC)C(=O)/C(=C/c1cccc(OCC(=O)c3ccccc3)c1)C2` : > 100 µM
